system: L3.6pl; assay: In vitro growth inhibition (GI), MTS cell proliferation assay (Table 5), L3.6pl; assay type: cell-based; conditions: Homo sapiens, 72 hours post-treatment
reported_property: GI50

Use these answered entries as a reference point.
O=C(NO)c1cc(CCNC(=O)c2cc(-c3cccc(NC(=O)C4CCCCC4)c3)on2)on1 | > 50 µM
CC(C)(C)OC(=O)Nc1cccc(-c2cc(C(=O)NCc3ccc(C(=O)NO)cc3)no2)c1 | > 50 µM

Then this molecule:
Prompt: Entry "CC(C)(C)OC(=O)Nc1ccc(-c2cc(C(=O)NCCc3cc(C(=O)NO)no3)no2)cc1" has what GI50?
Completion: > 50 µM
